What apparent KD of MS2 coat protein was measured for each of the following?
Test system: MS2 coat protein
Experiment: apparent KD of MS2 coat protein; higher = weaker reporter binding
Conditions: Eterna round: R107; input ligand: arginine 13.2 mM
# unit: nM | format: bare number

Task: Consider the sequence shown here: GGUUACUCUACGGCCGCCACUGAAAAGUAAAUAUUAAUGUACAUGACAUGAGGAUCACCCAUGUACAGGACCGGGUAGUGUAACC [Tryptophan B 13] What is its recorded apparent KD of MS2 coat protein?
Output: 64.8

Task: What would you report for UUAAAUGUGACGGAUACCAGCGUGUUGUAGAACAUGAGGAUCACCCAUGUAGUGAUCAAGCGCCCUUGGCAGCUGGUAUGUUUGA [7.Z] ?
Output: 227

Task: What would you report for CCUUACGUUGGGCAGCCAGUUCGAAGUGAUACCAGUCACAAAAGUGACCCUUGGCAGCACCGCACAUGAGGAUCACCCAUGUCUA [SSThA NP+V+V2 #8 Same Structure] ?
Output: 36.4

Task: What would you report for CAAACAUGAGGAUCACCCAUGUAAUCAGAUACCAGUGACGAAAGUCACCCUUGGCAGCUGAGUACAUAUUGGCAGAGGUGUUUGA [EThA NP+V+V2 #7] ?
Output: 41.4

Task: What would you report for AAACGUUGCUCAGAUACCAGACAUGAGGAUCACCCAUGUACCAAGGUACCCGAAAGGAAUGUCCCUUGGCAGCUGAGCAACGAAA [MAT - Exclusion Theophlline B - Mod of Eli - D21] ?
Output: 11.1

Task: What would you report for AUAACAUGAGGAUCACCCAUGUAAGCAGAUACCAGCUAGGAAACUAGCCCUUGGCAGCUGCAUAGUGAUCCAUAUAUCUGCUAAU [(M1)-(M2)-(T1)-(T2)-(M)'-(T)'_Design8] ?
Output: 40.6

Task: What would you report for UAAUAAAUAAAUCCAAGGUGAAGGUCAGAUACCAGCCAGAUAACUGGCCCUUGGCAGCUGAAUAAACUUGAGGAACACCCAAGUA [TheoAS 28 #OpenEnded #MS2Late #AlternativeMS2] ?
Output: 16.7

Task: What would you report for GUUGGUUUGCGAAGGAGCGGGUAUGUUUUCUACUGGAUCCUAACAUGAGGAUCACCCAUGUCCCAGGUAGGUCGCGCGGGCUUUG [12.aA] ?
Output: 35.6

Task: What would you report for CUAUGCAGGUCGGCCGCCACUACACACAUGAGGAUCACCCAUGUAGUUACUGGGUGAAGUGGCAGUAGGACCGGGACCUGCAUAU [Brourdmod07] ?
Output: 273

Task: What would you report for ACGAUAGCACAAGAGGAUCACCCUUGUGAUACCAGCCUGGAAACAGGCCCUUGGCAGCACACAAAUAAAUUGUAACUAUCGAAUA [TheoAX5 #MicroSwitchBubble #AlternativeMS2] ?
Output: 22.5

Task: What would you report for UACAUGAGGAUCACCCAUGUGUAGAGGGAUACCAGUGACAGUAAGCGCCCUUGGCAGCCCGUGAACAAUGGGUGAGCUAAAUAGU [#18 Exclusion-TheophyllineA] ?
Output: 28.7

Task: What would you report for AAUAAGUACUUUGAUACCAGCCUGCCAUCAUGCUAAUUUACAUGAGGAUCACCCAUGUUAGGCCCUUGGCAGCAAAGUGCAAUAA [XTheo B #1] ?
Output: 12.8

Task: What would you report for AGCAUGUUAGCAGAUACCAGACGUUUUAUGAUCCAUGUAACAUGAGGAUCACCCAUGUAAGUCCCUUGGCAGCUGAAAUAAUGCA [JR_SSTheophyB_Sub011] ?
Output: 75.7

Task: What would you report for ACGACGCAUAGUGAUACCAGUAGAACAUGAGGAUCACCCAUGUCUGUGGCGCACCACCUCUGCCCUUGGCAGCACUAUGCGUCAG [SSTheo B #9] ?
Output: 12.6

Task: What would you report for UAAAACAUGAGGAUCACCCAUGUAAAUGAUACCAGAGUGAUGAUCCUCCCUUGGCAGCAUAACGCUGAUUGAUUACAAUCAGCGA [Mat - Same State Theophlline A - Mod of Eli - D22] ?
Output: 55.2

Task: What would you report for AGCCUAUUACAUGAGGAUCACCCAUGUGAUACCAGUCAGGAAACUGACCCUUGGCAGCGCAUGAGGAUCACCCAUGCGCUAGGCA [Omei Theo A Exc A v5] ?
Output: 9.15

Task: What would you report for UGAUGGUACGGAAGGAGCGUGUAAGAACAAGAACAUGAGGAUCACCCAUGUAUUAAUUUAACACAGGUAGGUCGCCGUGUUAUUG [11.H] ?
Output: 31.9

Task: What would you report for AAUUAAACAUCGGCCGCCACUUACUCAUGAGGUAACAACAUGAGGAUCACCCAUGUUUGAGGAUCAAGGACCGGGAUGUAAUAAU [AstrosSSTryB#2] ?
Output: 23.2

Task: What would you report for CCUCAAUAGACGGCCGCCACUGAGACAUGAGGAUACAUGAGGAUCACCCAUGUGGGUGUGUCACGCAGGACCGGGUCAAGACCCG [Tryp B SS t2] ?
Output: 183

Task: What would you report for UCGCUCUGGGUGGGAUCCGGAGAUGUGGAAGGAGCGCUGGUAACAGCAGGUAGGUCGCCAACGGACAUGAGGAUCACCCAUGUAC [Same State - Arginine A (Freestyle 17)] ?
Output: 25.2

Task: What would you report for GGUGGCGGGACUGAUACCAGCCACCACCGAUAGACCACAUGAGGAUCACCCAUGUUGGGUGGCCCUUGGCAGCAGUCUUGCUGCC [#1 Same State - Theophylline B Attempt #12 (HarryS)] ?
Output: 24.2

Task: What would you report for AUAAGUGUAAGAUACCGCACGCUGGAGGAAGGAGCGCGGAUUAACGCAGGUAGGUCGCCUCGUACAUGAGGAUCACCCAUGUGGC [#14 Same State - Arginine A] ?
Output: 41.7
